- System: MGC-803 late stage differentiation gastric cancer cell
- test details: MTT anti-proliferative assay, MGC-803
- Format: cell-based, human
- condition summary: MTT, 48 h
measured attribute: IC50 (µM)
All answers are understood in µM, so give the number only.

compound	units symbol	numeric result
N#C/C(=C\c1ccc(Cl)cc1)c1ccc(OC(F)(F)F)cc1 [Compound 1a2c]	µM	35.2

Below: the item to evaluate.
Reported IC50 for MGC-803 late stage differentiation gastric cancer cell, given N#C/C(=C\c1ccc(Cl)cc1)c1ccccc1OC(F)(F)F [Compound 1c2b] ?
29

----------
- System: MGC-803 late stage differentiation gastric cancer cell
- test details: MTT anti-proliferative assay, MGC-803
- Assay type: cell-based, human
- condition summary: MTT, 48 h
measured attribute: IC50

Here's what some known entries look like.
chem smiles	result
CCN(CC)c1ccc(/C=C(\C#N)c2cc(OC)c(OC)c(OC)c2)cc1	0.12 µM
Cc1ccc(/C=C(\C#N)c2ccccc2OC(F)(F)F)cc1	13.1 µM
CCc1ccc(/C=C(\C#N)c2ccc(OC(F)(F)F)cc2)cc1	56.7 µM

Next:
What value of IC50 has been recorded for this entry: N#C/C(=C\c1cccc(C(F)(F)F)c1)c1ccc(C(F)(F)F)cc1
> 100 µM
